Test system: LOC_OS03G04050-cb001
Assay: thermal shift delta Tm vs DMSO control; higher = stronger stabilization (binding);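 note: purified Escherichia coli-expressed rice kinase domain construct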
Settings: 12.5 µM; protein concentration 2 µM
Counter-ions that a name gives are not always drawn.
Assign class by thermal shift delta Tm: not lower than 0.5 °C means Met; lower than 0.5 °C means Not met.

Example cases with answers are listed next.
>  <compound>
c1cn2cc(-c3ccc4cn[nH]c4c3)nc(Nc3ccc(N4CCOCC4)cc3)c2n1 [Entospletinib (GS-9973)]

>  <assigned.class>
Met

$$$$
>  <compound>
N#C/C(=C\c1ccc(O)c(O)c1)C(=O)NCc1ccccc1 [AG-490 (Tyrphostin B42)]

>  <assigned.class>
Met

$$$$

For this compound, is measured thermal shift delta Tm 0.5 °C or higher? `Cc1c[nH]c2nc(Nc3ccc(N4CCN(C)CC4)c(F)c3)nc(-c3cccc(CC#N)c3)c12`
Met

Also, CCCCCCCCc1ccc(CCC(N)(CO)CO)cc1 [Fingolimod (FTY720) HCl] please.
Not met

Also, COc1cc2nccc(Oc3ccc(NC(=O)Nc4cc(C)on4)c(Cl)c3)c2cc1OC [Tivozanib (AV-951)] please.
Not met

Also, `c1cncc(CN2CCC(n3ncc4c(N5CCOCC5)nc(-c5ccc6[nH]ccc6c5)nc43)CC2)c1` please.
Not met

Also, `COc1cccc(-n2c(=O)[nH]c3cc(Cl)n(-c4ccc(-c5cccc(OC)c5O)cc4)c3c2=O)c1` please.
Not met

Also, CN1CCN(c2ccc3nc(-c4c(N)c5c(F)cccc5[nH]c4=O)[nH]c3c2)CC1 [Dovitinib (TKI258) Lactate] please.
Met

Also, CC1(C)C=Cc2c(ccc3c2OC[C@@H](c2ccc(O)cc2O)C3)O1 [Glabridin] please.
Met

Also, `COc1cc(N2CCC(N(C)C)CC2)ccc1Nc1ncc(Cl)c(Nc2ccccc2P(C)(C)=O)n1` please.
Met

###

Test system: LOC_OS01G57100-cb003
Experiment: thermal shift delta Tm vs DMSO control; higher = stronger stabilization (binding)
Conditions: 12.5 µM; protein concentration 2 µM
experimental.endpoint: thermal shift delta Tm

>  <molecule>
O=C1Cc2c([nH]c3ccc(Br)cc23)-c2ccccc2N1

>  <observed.measurement>
0.8 °C

$$$$
>  <molecule>
CN1CCN(CCOc2cc(OC3CCOCC3)c3c(Nc4c(Cl)ccc5c4OCO5)ncnc3c2)CC1

>  <observed.measurement>
0.72 °C

$$$$
>  <molecule>
C=CC(=O)Nc1cc(Nc2nccc(-c3cn(C)c4ccccc34)n2)c(OC)cc1N(C)CCN(C)C

>  <observed.measurement>
-0.15 °C

$$$$
>  <molecule>
COc1ccc(-c2cc3nccn3c(Nc3ncccc3C(N)=O)n2)cc1OC

>  <observed.measurement>
0.13 °C

$$$$
>  <molecule>
Oc1c(F)cc(-c2cnccc2-c2ccc(N3CCOCC3)cc2)cc1F

>  <observed.measurement>
1.14 °C

$$$$

Please look up its thermal shift delta Tm: `COc1cc(C(=O)N2CCC(N3CCN(C)CC3)CC2)ccc1Nc1ncc2c(n1)N(C)c1ccccc1C(=O)N2C`
0.21 °C

Also, `OCCn1cc(-c2cnc3nnn(Cc4ccc5ncccc5c4)c3n2)cn1` please.
0.41 °C

Also, `C[C@@H]1CN(C(=O)c2ccc(NC(=O)c3cc(O[C@H](C)c4c(Cl)ccc(F)c4Cl)c(N)nn3)cc2)C[C@H](C)N1` please.
4.79 °C

Also, `CNC(=O)c1ccccc1Sc1ccc2c(/C=C/c3ccccn3)n[nH]c2c1` please.
0.01 °C

Also, `CC1(COc2ccc3c(c2)ncn3-c2ccc3cccc(N4CCC(N)CC4)c3n2)COC1` please.
1.84 °C

Also, `NC1(c2ccc(-c3nc4ccn5c(=O)[nH]nc5c4cc3-c3ccccc3)cc2)CCC1` please.
-0.32 °C

Also, CC1Oc2cc(cnc2N)-c2c(nn(C)c2C#N)CN(C)C(=O)c2ccc(F)cc21 (configuration not stated) please.
3.37 °C

Also, `CCn1c(C(=O)N(C2CC2)C2CC2)cc2c3c(ncn3C)c(Nc3cc(C)n(C)n3)nc21` please.
1.18 °C

Also, `CCCS(=O)(=O)Nc1ccc(F)c(C(=O)c2c[nH]c3ncc(-c4ccc(Cl)cc4)cc23)c1F` please.
3.36 °C

Also, `CC(C)n1ncnc1-c1cn2c(n1)-c1ccc(O[C@@H](C)C(N)=O)cc1OCC2` please.
0.54 °C

Also, `CCc1cc(Nc2nccc(-c3c(-c4ccc(OC)c(C(=O)Nc5c(F)cccc5F)c4)nc4ccccn34)n2)c(OC)cc1N1CCC(N2CCN(S(C)(=O)=O)CC2)CC1` please.
1.35 °C

Also, `O=C(Nc1cccc(Nc2ncc(Br)c(NCCc3cnc[nH]3)n2)c1)N1CCCC1` please.
1.45 °C

###

Tested on: LOC_OS03G27990-cb004
Test: thermal shift delta Tm vs DMSO control; higher = stronger stabilization (binding)
Details: 12.5 µM; protein concentration 2 µM
experimental.endpoint: thermal shift delta Tm (°C)
A number alone suffices; assume °C.

Please look up its thermal shift delta Tm: `COc1cc(OC)cc(-c2cc3cnc(N)nc3nc2NC(=O)NC(C)(C)C)c1`
0.16

Also, `O=C(c1ccc(/C=C/c2n[nH]c3ccccc23)cc1)N1CCNCC1` please.
6

Also, `C=CC(=O)Nc1cccc(Nc2nc(Nc3ccc(OCCOC)cc3)ncc2F)c1` please.
1.06

Also, `O=C1NC(=O)C(c2cnc3ccccn23)=C1c1cn2c3c(cc(F)cc13)CN(C(=O)N1CCCCC1)CC2` please.
0.13

###

Item-by-item account of thermal shift delta Tm
System: LOC_OS01G13800-cb001
Assay: thermal shift delta Tm vs DMSO control; higher = stronger stabilization (binding)
Settings: 12.5 µM; protein concentration 2 µM
A number alone suffices; assume °C.

Request: thermal shift delta Tm, test system LOC_OS01G13800-cb001, entry `C=C(C)[C@@H]1CC[C@]2(C)CC[C@]3(C)[C@H](CC[C@@H]4[C@@]5(C)CC[C@H](O)C(C)(C)[C@@H]5CC[C@]43C)[C@@H]12`
0.74

Also, `Cc1ccc(F)c(NC(=O)Nc2ccc(-c3cccc4[nH]nc(N)c34)cc2)c1` please.
0.36

Also, `O=C1Nc2ccc(CN3C(=O)CSC3=O)cc2/C1=C/c1cc(CN2CCOCC2)c[nH]1` please.
0.08

Also, `Cc1ccc(CNc2ncnc3ccc(-c4ccc(CO)o4)cc23)o1` please.
-0.33

###

Test system: LOC_OS01G63280-cb003
Experiment: thermal shift delta Tm vs DMSO control; higher = stronger stabilization (binding)
Conditions: 12.5 µM; protein concentration 2 µM
experimental.endpoint: thermal shift delta Tm (°C)
A number alone suffices; assume °C.

Known thermal shift delta Tm results, listed for orientation:
>  <compound>
NC(=O)c1ccc2nc(-c3ccc(Oc4ccc(Cl)cc4)cc3)[nH]c2c1

>  <observed.measurement>
0.87

$$$$
>  <compound>
Oc1cccc(-c2nc(N3CCOCC3)c3oc4ncccc4c3n2)c1

>  <observed.measurement>
0.94

$$$$
>  <compound>
CCOc1ccn(-c2ccc(F)cc2)c(=O)c1C(=O)Nc1ccc(Oc2ccnc(N)c2Cl)c(F)c1

>  <observed.measurement>
6.59

$$$$
>  <compound>
NC(=O)c1cnc(N[C@@H]2CCCC[C@@H]2N)nc1Nc1cccc(-n2nccn2)c1

>  <observed.measurement>
0.28

$$$$
>  <compound>
CN1CCN(Cc2ccc(NC(=O)Nc3ccc(Oc4ccnc(N)n4)cc3)cc2C(F)(F)F)CC1

>  <observed.measurement>
8.29

$$$$

Now take the following compound into account.
Request: thermal shift delta Tm, test system LOC_OS01G63280-cb003, entry `CC(C)(C)c1nc(-c2cccc(NS(=O)(=O)c3c(F)cccc3F)c2F)c(-c2ccnc(N)n2)s1`
19.8

###

Item-by-item account of thermal shift delta Tm
System: LOC_OS03G50450-cb001
Assay: thermal shift delta Tm vs DMSO control; higher = stronger stabilization (binding)
Details: 12.5 µM; protein concentration 2 µM
A number alone suffices; assume °C.

Known thermal shift delta Tm results, listed for orientation:
>  <compound>
Cc1ncc(CO)c(CO)c1O

>  <thermal shift delta Tm, °C>
0.62

$$$$
>  <compound>
CNC(=O)c1ccccc1Nc1cc(Nc2ccc(N3CCOCC3)cc2OC)ncc1C(F)(F)F

>  <thermal shift delta Tm, °C>
0.25

$$$$
>  <compound>
CN1CCN(Cc2ccc(NC(=O)Nc3ccc(Oc4ccnc(N)n4)cc3)cc2C(F)(F)F)CC1

>  <thermal shift delta Tm, °C>
-0.31

$$$$
>  <compound>
C=C(C)[C@@H]1CC[C@]2(C)CC[C@]3(C)[C@H](CC[C@@H]4[C@@]5(C)CC[C@H](O)C(C)(C)[C@@H]5CC[C@]43C)[C@@H]12

>  <thermal shift delta Tm, °C>
0.36

$$$$
>  <compound>
CCN1C(=O)CNc2ncc(-c3ccc(-c4nc[nH]n4)nc3C)nc21

>  <thermal shift delta Tm, °C>
-0.24

$$$$
>  <compound>
CCn1c(=O)c(-c2ccc(Cl)cc2Cl)cc2cnc(Nc3ccc(N4CCNCC4)c(F)c3)nc21

>  <thermal shift delta Tm, °C>
0.54

$$$$
>  <compound>
Cn1cc(-c2ccc3nnc(C(F)(F)c4ccc5ncccc5c4)n3n2)cn1

>  <thermal shift delta Tm, °C>
0.07

$$$$
>  <compound>
Cc1ncc(CCCN(C)C)cc1Nc1ncc2c(n1)-c1ccc(C(F)(F)F)cc1NC(=S)C2

>  <thermal shift delta Tm, °C>
0.13

$$$$
>  <compound>
CC(C)c1cnn2c(NCc3ccccc3-n3cccn3)nc(OC3CCCNC3)nc12 (stereo not drawn)

>  <thermal shift delta Tm, °C>
0.09

$$$$
>  <compound>
COc1cc2ncc(-c3ccccc3)nc2cc1OC

>  <thermal shift delta Tm, °C>
0.48

$$$$

Please look up its thermal shift delta Tm: `CC[C@@H]1C(=O)N(C)c2cnc(Nc3ccc(C(=O)N[C@H]4CC[C@H](N5CCN(CC6CC6)CC5)CC4)cc3OC)nc2N1C(C)C`
1.23

Also, CN1CCN(c2ccc3nc(-c4c(N)c5c(F)cccc5[nH]c4=O)[nH]c3c2)CC1 [Dovitinib (TKI-258) Dilactic Acid] please.
5.49

Also, `C[C@@H]1COCCN1c1cc(=O)n2c(n1)N(Cc1cncc(Cl)c1)[C@H](C(F)(F)F)CC2` please.
0.04

Also, `O=C1Nc2ccc(I)cc2/C1=C/c1cc(Br)c(O)c(Br)c1` please.
1.49

Also, `CN1CCCN(C(=O)c2cccc(-c3ccc(/C=C4/C(=O)Nc5ccc(Cl)cc54)o3)c2)CC1` please.
0.49

Also, `Cn1cc(/C=C2\C(=O)Nc3cccnc32)c2ccccc21` please.
4

Also, `O=C(Nc1c[nH]nc1-c1nc2ccc(CN3CCOCC3)cc2[nH]1)NC1CC1` please.
3.92

Also, `Cn1ncc(Cl)c1-c1cc(C(=O)N[C@H](CN)Cc2ccc(F)c(F)c2)oc1Cl` please.
0.74
